# experimentalDetails: Metabolic stability in human liver microsomes assessed as intrinsic clearance at 1 uM incubated for 30 mins by LC-MS/MS analysis
# Assay type: ADME, Microsome
# conditionDetails: 0.5 h
readout: CLH (%)
Respond with the bare value in %.

Looking for the measured CLH of c1cc(-c2cn(CC3CC3)c3cnccc23)ccn1 , can you help?
87

Quick one: CC1(C)CN(C(=O)Nc2cc(-c3cn(C4CCOCC4)c4cnccc34)ccn2)C1
43

Quick one: CC(C)Cn1cc(-c2ccncc2)c2ccncc21
83

Quick one: O=C(Nc1cc(-c2cn(-c3ccccc3)c3cnccc23)ccn1)NC1CC1
21

Quick one: O=C(Nc1cc(-c2cn(C3CCOCC3)c3cnccc23)ccn1)N1CCOCC1
21

Quick one: C[C@@H]1CN(C(=O)Nc2cc(-c3cn([C@H]4CC[C@@](C)(O)CC4)c4cnccc34)ccn2)C[C@H](C)O1
21

Quick one: Nc1cc(-c2cn(-c3ccccc3)c3cnccc23)ccn1
87

Quick one: O=C(Nc1cc(-c2cn(-c3ccccc3)c3cnccc23)ccn1)C1CC1
44

====

Assignment: determine reported CLH for the given molecules.
# experimentalDetails: Metabolic stability in mouse liver microsomes assessed as intrinsic clearance at 1 uM incubated for 30 mins by LC-MS/MS analysis
# Format: ADME, Microsome
# conditionDetails: 0.5 h
Respond with the bare value in %.

Looking for the measured CLH of c1cc(-c2cn(C3CCOCC3)c3cnccc23)ccn1 , can you help?
91

Quick one: c1ccc(Cn2cc(-c3ccncc3)c3ccncc32)cc1
90

Quick one: CC1(Cn2cc(-c3ccncc3)c3ccncc32)COC1
90
